# assayed.target: Genome polyprotein (Dengue virus type 2 (strain 16681-PDK53)) (UniProt P29991)
# protocol.text: flavivirus cap methylation enzyme inhibition – biochemical, confirmation dose response, primary screen (AID 588689)
# experimental.setup: Dengue-2 NS5 methyltransferase capping enzyme assay, at 25 µM, stronger effect = higher value
Among all 340,000 compounds or so, about 1,000 (0.29%) were called active. Only a sample is shown. Measured potencies and affinities stand elsewhere.
Listed next: entries and their corresponding inhibition.
Quick reminder: number only, in %, skip the unit.

Examples from the recorded data:
Exercise: What measured inhibition goes with `O=C(O)c1cccc(NC(=O)c2ccc3c(c2)C(=O)N(Cc2ccco2)C3=O)c1` ?
Key: -0.72

Exercise: // same read-out, input: `Cc1ccc(SC2=C(Sc3ccc(C)cc3)C(=O)c3ccccc3C2=O)cc1`
Key: 22.2

Exercise: Then this compound: `Cn1c(N)c(S(=O)(=O)N2CCN(c3ccccc3F)CC2)c(=O)n(C)c1=O`
Key: -7.15

Exercise: Quick one: `C=CCNC(=O)c1ccc(OC)cc1`
Key: -4.57

Exercise: Record: `CCN1CCN(C(=O)/C=C/c2ccc(OC)cc2)CC1`
Key: 0

New cases:
Exercise: I would be grateful if you could share the reported inhibition for `COC1=C(Nc2ccc(C)cc2)C(=O)c2ccccc2C1=O` .
Key: 1.28

###

Recorded measurements of inhibition, one per entry
# assayed.target: Genome polyprotein (Dengue virus type 2 (strain 16681-PDK53))
# protocol.text: flavivirus cap methylation enzyme inhibition – biochemical, confirmation dose response, primary screen (AID 588689)
# experimental.setup: Dengue-2 NS5 methyltransferase capping enzyme assay, at 25 µM, stronger effect = higher value
Hit rate of the full screen: of about 340,000 compounds, about 1,000 (0.29%) were called active. The list is a sample of the results. Potency and affinity values are given separately.

Exercise: Look up inhibition for this compound: `O=C(O)COc1ccccc1C=NNc1ccc([N+](=O)[O-])cc1S(=O)(=O)Nc1ccc(Cl)cc1`
Key: 35% (inactive)

Exercise: Could you do the same for `CCN(CC)S(=O)(=O)c1ccc(N/N=C/c2ccccc2OCC(=O)O)c([N+](=O)[O-])c1` , please?
Key: 13.7% (inactive)

Exercise: Moving on to `CCOc1ccc(/C=C/C(=O)c2ccccc2)cc1`
Key: -8.48% (inactive)

Exercise: `O=C(O)COc1ccc(/C=C/C(=O)c2ccc3ccccc3c2)cc1` ?
Key: 21.6% (inactive)

Exercise: Then what about the compound `CC/C(=N/NC(=O)c1ccc2c(c1)OCO2)c1ccccc1O` ?
Key: 3.08% (inactive)

Exercise: And for `Cc1ccc(NS(=O)(=O)c2ccc(N/N=C/c3ccncc3)c([N+](=O)[O-])c2)c(C)c1` ?
Key: 2.21% (inactive)

Exercise: `Cc1ccc(N2C(=O)C(Cl)=C(N3CCCCCC3)C2=O)c(C)c1` , same question.
Key: -10.4% (inactive)

Exercise: Can you handle `O=C(O)COc1ccccc1/C=N/Nc1ccc(S(=O)(=O)N2CCOCC2)cc1[N+](=O)[O-]` next?
Key: 6.86% (inactive)

Exercise: Then this compound: COc1ccc(OCC(O)CN2CCOCC2)cc1 (stereo not given)
Key: 7.33% (inactive)

Kindly review the next compound as well.
Exercise: Item `CCC(=O)Nc1nnc(Cc2ccccc2)s1` has what recorded inhibition?
Key: 1.61% (inactive)
